# System: Grb2 SH2 (UniProt P62993)
# Sequence (P62993 whole entry, looked up): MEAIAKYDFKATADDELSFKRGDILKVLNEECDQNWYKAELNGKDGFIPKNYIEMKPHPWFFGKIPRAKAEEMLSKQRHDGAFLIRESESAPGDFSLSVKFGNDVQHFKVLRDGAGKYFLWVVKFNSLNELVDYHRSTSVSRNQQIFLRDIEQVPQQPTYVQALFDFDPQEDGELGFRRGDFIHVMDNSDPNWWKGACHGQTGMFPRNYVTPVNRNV
# Measurement Protocol: SH2 binding enrichment of the phosphorylated peptide, bacterial display (enrichment ratio); higher = better substrate or ligand; peptides without Tyr show the background
Result Type: SH2 binding enrichment
Just the number, please.

Worked examples, 5 sequences total:
- Residue Sequence: "ANYTEYVATSW [CDKL5_Y171_R175S]"
  Value Measured: 0.874
- Residue Sequence: "IGNGYYFHVFS [MYBPC3_Y1136_R1138H]"
  Value Measured: 1.05
- Residue Sequence: "GEDEPYAEPYA [APBA1_Y183_S184A]"
  Value Measured: 1.1
- Residue Sequence: "GLALRCLSDHS [VWF_Y1584_Y1584C]"
  Value Measured: 0.815
- Residue Sequence: "VHSGTYQVTVC [MYBPC3_Y1043_R1048C]"
  Value Measured: 0.694

[Q] // fetch SH2 binding enrichment given entry SVNCTYSPALN [TP53_Y126_T123N]
[A] 0.722

[Q] // fetch SH2 binding enrichment given entry HILFRYPKEFQ [IDS_Y234_P231L]
[A] 0.625

[Q] // fetch SH2 binding enrichment given entry MKALGYFAVVK [OPA1_Y498_T503K]
[A] 0.792

[Q] // fetch SH2 binding enrichment given entry IYGASYVPFAA [RBM47_Y541]
[A] 0.616

[Q] // fetch SH2 binding enrichment given entry KIPGRYYETGS [PAX2_Y72_L69P]
[A] 0.97

[Q] // fetch SH2 binding enrichment given entry ILGRFYETGSI [PAX2_Y73_YF]
[A] 0.85

[Q] // fetch SH2 binding enrichment given entry ACCLLYHGDVV [TUBA4A_Y319_R320H]
[A] 1.03

[Q] // fetch SH2 binding enrichment given entry RIDRKYKKVRF [F8_Y442_G439D]
[A] 1.17

[Q] // fetch SH2 binding enrichment given entry VKYLGYPPPEI [KDR_Y357_A352V]
[A] 0.896

====

# System: c-Src
# Measurement Protocol: phosphorylation enrichment, bacterial display (enrichment ratio); higher = better substrate or ligand; peptides without Tyr show the background
Result Type: phosphorylation enrichment
Just the number, please.

Worked examples, 8 sequences total:
- Residue Sequence: "AHDGEYGAEAL [HBA1_Y25_A22D]"
  Result Type: "phosphorylation enrichment"
  Value Measured: 0.424
- Residue Sequence: "WRPFGYPHRRR [BCS1L_Y181_R183H]"
  Result Type: "phosphorylation enrichment"
  Value Measured: 0.473
- Residue Sequence: "GRVFVYHLSEQ [ITGAE_Y551_R552H_YF]"
  Result Type: "phosphorylation enrichment"
  Value Measured: 0.629
- Residue Sequence: "LQLLGDRPVYS [CHST6_Y358_Y358D]"
  Result Type: "phosphorylation enrichment"
  Value Measured: 1.35
- Residue Sequence: "LTTPTFGDLNH [TUBB_Y222_Y222F]"
  Result Type: "phosphorylation enrichment"
  Value Measured: 0.577
- Residue Sequence: "KYLENYYDLEK [MMP3_Y41_K45E]"
  Result Type: "phosphorylation enrichment"
  Value Measured: 2.2
- Residue Sequence: "VMAALYGRLYE [BTD_Y536_T532M]"
  Result Type: "phosphorylation enrichment"
  Value Measured: 5.01
- Residue Sequence: "FSQQTYCRVSN [ABCD1_Y180_Y181C]"
  Result Type: "phosphorylation enrichment"
  Value Measured: 0.881

[Q] // fetch phosphorylation enrichment given entry EADRKYEEVAG [TPM3_Y163_R168G]
[A] 0.452

[Q] // fetch phosphorylation enrichment given entry RNIQQCNSFVS [PRKAR1A_Y373_Y373C]
[A] 0.707

[Q] // fetch phosphorylation enrichment given entry SIKDKYVTAVY [KCNH2_Y611_L615V]
[A] 0.49

[Q] // fetch phosphorylation enrichment given entry TNFRLYLRSLE [MTM1_Y71_YF]
[A] 0.476

[Q] // fetch phosphorylation enrichment given entry TGHKGYVAFLE [CARD9_Y76]
[A] 0.394

[Q] // fetch phosphorylation enrichment given entry VIDGKYAFKPK [GTF2E2_Y137]
[A] 0.328

[Q] // fetch phosphorylation enrichment given entry RSDSSYRMSAT [NHS_Y1532]
[A] 0.585

[Q] // fetch phosphorylation enrichment given entry LTMAPYSSVSL [FAM81A_Y24]
[A] 0.897

====

# Tested on: AncSZ
# Measurement Protocol: phosphorylation enrichment, bacterial display (enrichment ratio); higher = better substrate or ligand; peptides without Tyr show the background
Result Type: phosphorylation enrichment
Just the number, please.

[Q] Quote AncSZ phosphorylation enrichment for entry ILGRFYETGSI [PAX2_Y73_YF] .
[A] 0.737

[Q] Quote AncSZ phosphorylation enrichment for entry PLCPDYQEPSR [DDR2_Y481_R478C] .
[A] 3.5

[Q] Quote AncSZ phosphorylation enrichment for entry QDGFSYPSRQM [LDLR_Y847_YF] .
[A] 0.378

[Q] Quote AncSZ phosphorylation enrichment for entry QMVGMYASSSM [AVPR2_Y124_Y128S] .
[A] 0.647

[Q] Quote AncSZ phosphorylation enrichment for entry RQNQEYEILMD [KRT39_Y379_L383M] .
[A] 1.53

[Q] Quote AncSZ phosphorylation enrichment for entry SVNCTYSPALN [TP53_Y126_T123N] .
[A] 0.957

[Q] Quote AncSZ phosphorylation enrichment for entry EEQKKYYNATK [SCN5A_Y1494_M1498T] .
[A] 0.59

====

// SH2 binding enrichment lookup, one value per entry
# System: SHP2-C SH2
# Measurement Protocol: SH2 binding enrichment of the phosphorylated peptide, bacterial display (enrichment ratio); higher = better substrate or ligand; peptides without Tyr show the background
Just the number, please.

Worked examples, 2 sequences total:
- Residue Sequence: "EDKFMYLEFPQ [PTEN_Y240_F241L]"
  SH2 binding enrichment: 0.616
- Residue Sequence: "PTQLPYDHKWE [KIT_Y578]"
  SH2 binding enrichment: 0.575

[Q] // fetch SH2 binding enrichment given entry HSGVSYFINLC [IGF2R_Y2024_N2020S_YF]
[A] 0.491

====

# System: c-Abl (mouse)
# Measurement Protocol: phosphorylation enrichment, bacterial display (enrichment ratio); higher = better substrate or ligand; peptides without Tyr show the background
Returns MET if the recorded phosphorylation enrichment is greater than or equal to 0.7, and NOT MET otherwise.

These recorded examples may help you get a feel for the data.
- Residue Sequence: "INNIDYFKKTT [FGFR2_Y656_YF]"
  Assigned Category: "NOT MET"
- Residue Sequence: "SVTCTYPPALN [TP53_Y126_S127P]"
  Assigned Category: "MET"
- Residue Sequence: "DVQNAYDSNHC [ZFYVE16_Y36]"
  Assigned Category: "MET"
- Residue Sequence: "IMVFVYSRVFQ [ADRB2_Y219]"
  Assigned Category: "MET"
- Residue Sequence: "CEHRGFLFLAI [TEK_Y897_Y897F_YF]"
  Assigned Category: "MET"
- Residue Sequence: "KLADMYGGGED [CDH1_Y876]"
  Assigned Category: "NOT MET"
- Residue Sequence: "VEDQYYRVDCY [FHL1_Y208_C209R]"
  Assigned Category: "MET"
- Residue Sequence: "GIVEDYRPTFF [ACVRL1_Y421_P424T_YF]"
  Assigned Category: "MET"

[Q] API: above_or_equal(metric=phosphorylation enrichment, cutoff=0.7) for item LRLSSYSTTIR [CYP7B1_Y365]
[A] NOT MET

[Q] API: above_or_equal(metric=phosphorylation enrichment, cutoff=0.7) for item LSALDYKIFYY [WDPCP_Y210]
[A] MET

[Q] API: above_or_equal(metric=phosphorylation enrichment, cutoff=0.7) for item GVTLLYFGRFN [ADGRD1_Y85_YF]
[A] MET

[Q] API: above_or_equal(metric=phosphorylation enrichment, cutoff=0.7) for item PFVFFYSFLLK [PTEN_Y178_R173P_YF]
[A] MET

[Q] API: above_or_equal(metric=phosphorylation enrichment, cutoff=0.7) for item FKPENYRRLDI [VHL_Y175_V170F]
[A] NOT MET

[Q] API: above_or_equal(metric=phosphorylation enrichment, cutoff=0.7) for item VMAALYGRLFE [BTD_Y536_T532M_YF]
[A] MET

[Q] API: above_or_equal(metric=phosphorylation enrichment, cutoff=0.7) for item KRLKDYLTVLQ [USP25_Y425]
[A] MET

[Q] API: above_or_equal(metric=phosphorylation enrichment, cutoff=0.7) for item NSFKYYMSDDI [ATRX_Y204_C200S]
[A] NOT MET

[Q] API: above_or_equal(metric=phosphorylation enrichment, cutoff=0.7) for item MAQDIYRASYY [ALK_Y1278_R1275Q]
[A] MET

[Q] API: above_or_equal(metric=phosphorylation enrichment, cutoff=0.7) for item GDSVQYNRTTD [MLPH_Y454_P451S]
[A] NOT MET

[Q] API: above_or_equal(metric=phosphorylation enrichment, cutoff=0.7) for item GRDQPYSGTGD [TYRO3_Y828_A831T]
[A] NOT MET

[Q] API: above_or_equal(metric=phosphorylation enrichment, cutoff=0.7) for item PVPKTYDMLNA [PKP2_Y108_K112N]
[A] MET

[Q] API: above_or_equal(metric=phosphorylation enrichment, cutoff=0.7) for item VVKLAYNENDN [CAMKK2_Y183]
[A] NOT MET

[Q] API: above_or_equal(metric=phosphorylation enrichment, cutoff=0.7) for item RRAKGYPINLY [ITGB2_Y125_D128N]
[A] NOT MET

[Q] API: above_or_equal(metric=phosphorylation enrichment, cutoff=0.7) for item AVLALHNSTRD [TGFB1_Y81_Y81H]
[A] NOT MET

[Q] API: above_or_equal(metric=phosphorylation enrichment, cutoff=0.7) for item VLSIDYYFPPQ [AR_Y552_P549S]
[A] MET

These entries and their values trace back to the supplement of paper PMC10065799.
